The measurements presented in this section are drawn from patent US20200399369A1.

Overview of reported EC50 across a group of binders:
# Tested Target: T1, human CD38 (human, UniProt P28907 43-300, limits assumed)
# T1 construct: also called hCD38; huCD38
# Assay Details: FACS

{"Binder": "AntiCD38_hyb_5739 (antibody, V domains shown) VH: QVQLQQSGPELVRPGTSVKVSCKASGYAFTTYLVEWIKQRPGQGLEWIGVINPGSGSTNYNEKFKGKATLTVDRSSTTAYMHLSGLTSDDSAVYFCARYAYGYWGQGTTLTVSS VL: DIVMTQSQKFMSASVGDRVSITCKASQNVGTAVAWYQQQPGHSPKQLIYSASNRYTGVPDRFTGSGAGTDFTLTISNIQSEDLADYFCQQYSTYPFTFGSGTKLEIK", "EC50, nM": 0.3}
{"Binder": "AntiCD38_hhy_1195 (antibody, V domains shown) VH: QVQLVESGGGVVQPGRSLRLSCAASGFTFSSYGMYWVRQAPGKGLEWVAVIWYDGSNKYYADSVKGRFTISRDNSKNTLYLQMNSLRAEDTAVYHCARDPGLRYFDGGMDVWGQGTTVTVSS VL: DIQLTQSPSFLSASVGDRVTITCRASQGISSYLAWYQQKPGKAPKLLIFAASTLHSGVPSRFSGSGSGTEFTLTISSLQPEDFATYYCQQLNSFPYTFGQGTKLEIK", "EC50, nM": 38}
{"Binder": "AntiCD38_hhy_992 (antibody, V domains shown) VH: QVQLVQSGAEVKKPGASVKVSCKVSGYTLTEFSIHWVRQAPGQGLEWMGGFDPEDGETIYAQKFQGRVIMTEDTSTDTAYMEMNSLRSEDTAIYYCTTGRFFDWFWGQGTLVTVSS VL: EIILTQSPAILSLSPGERATLSCRASQSVISRFLSWYQVKPGLAPRLLIYGASTRATGIPVRFSGSGSGTDFSLTISSLQPEDCAVYYCQQDSNLPITFGQGTRLEIK", "EC50, nM": 100}
{"Binder": "AntiCD38_hyb_6284 (antibody, V domains shown) VH: QVQLLQSGAELVRPGVSVKISCTGSGYSFTNYAVHWVKQSHVKSLEWIGVISPYYGDTTYNQKFTGKATMTVDKSSSTAYMELARLTSEDSAIYFCARRFEGFYYSMDYWGQGTSVTVSS VL: DVVMIQTPLSLPVSLGDQASISCRPSQSLVHSNGNTYLNWYLQRPGQSPKLLIYKVSKRFSGVPDRFSGSGSGTDFTLKISRVEAEDLGVYLCSQSTHVPLTFGSGTQLEIK", "EC50, nM": 0.4}
